Target: T1, human Tim-3 expressed on the cell surface (human, UniProt Q8TDQ0 22-301)
T1 construct: also called hTim-3; Human Tim-3 (CHO)
Assay: flow cytometry, activated human CD4+ T cells
property.name: Kd
Write your answer as a measured quantity: the number, then the unit.

Looking up h22E11-VK2-28 × h22E11-VH4-30-4 (antibody, V domains shown, Humanized m22E11) VH: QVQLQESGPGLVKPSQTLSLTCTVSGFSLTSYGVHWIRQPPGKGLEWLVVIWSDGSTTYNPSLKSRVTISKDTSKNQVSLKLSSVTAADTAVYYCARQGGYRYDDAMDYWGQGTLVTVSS VL: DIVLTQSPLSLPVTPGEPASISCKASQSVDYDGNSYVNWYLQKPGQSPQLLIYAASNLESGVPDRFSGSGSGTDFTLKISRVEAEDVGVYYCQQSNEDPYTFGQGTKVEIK , I found its Kd recorded as 9.2 nM

Measured Kd of h22E11-VK2-28 × h22E11-5-IgG-HC (antibody, V domains shown, Humanized m22E11) VH: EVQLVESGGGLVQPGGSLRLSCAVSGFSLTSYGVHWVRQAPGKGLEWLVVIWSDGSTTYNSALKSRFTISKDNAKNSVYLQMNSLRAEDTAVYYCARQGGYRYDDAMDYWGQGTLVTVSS VL: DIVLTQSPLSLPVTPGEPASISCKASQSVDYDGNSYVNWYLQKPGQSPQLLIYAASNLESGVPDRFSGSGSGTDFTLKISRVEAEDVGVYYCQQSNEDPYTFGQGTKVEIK : 3.3 nM

Form field Kd, entry h22E11-VK4-1 × h22E11-VH1-69 (antibody, V domains shown, Humanized m22E11) VH: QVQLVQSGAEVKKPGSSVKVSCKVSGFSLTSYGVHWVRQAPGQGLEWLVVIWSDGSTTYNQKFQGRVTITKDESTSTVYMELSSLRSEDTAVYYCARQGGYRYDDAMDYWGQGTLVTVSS VL: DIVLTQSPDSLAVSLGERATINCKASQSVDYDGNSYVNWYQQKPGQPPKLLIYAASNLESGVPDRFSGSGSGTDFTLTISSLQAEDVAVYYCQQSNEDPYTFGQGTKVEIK : 6.3 nM

Data provenance is patent US20200190192A1.
